system: VSV-G PsV; format: cell-based
READOUT: Inhibition of VSV-G pseudoviral transduction

>>> measured("C[C@@H]1O[C@@H](O[C@H]2[C@H](O[C@H]3CC[C@]4(C)[C@H]5CC=C6[C@@H]7CC(C)(C)CC[C@]7(C(=O)NCc7cccs7)CC[C@@]6(C)[C@]5(C)CC[C@H]4C3(C)C)O[C@H](CO)[C@@H](O[C@@H]3O[C@@H](C)[C@H](O)[C@@H](O)[C@H]3O)[C@@H]2O)[C@H](O)[C@H](O)[C@H]1O [Compound 12i]")
"no effect"
>>> measured("COc1ccccc1NC(=O)[C@]12CCC(C)(C)C[C@H]1C1=CC[C@@H]3[C@@]4(C)CC[C@H](O[C@@H]5O[C@H](CO)[C@@H](O[C@@H]6O[C@@H](C)[C@H](O)[C@@H](O)[C@H]6O)[C@H](O)[C@H]5O[C@@H]5O[C@@H](C)[C@H](O)[C@@H](O)[C@H]5O)C(C)(C)[C@@H]4CC[C@@]3(C)[C@]1(C)CC2 [Compound 12b]")
"no effect"
>>> measured("C[C@@H]1O[C@@H](O[C@H]2[C@H](O[C@H]3CC[C@]4(C)[C@H]5CC=C6[C@@H]7CC(C)(C)CC[C@]7(C(=O)NCc7ccccc7F)CC[C@@]6(C)[C@]5(C)CC[C@H]4C3(C)C)O[C@H](CO)[C@@H](O[C@@H]3O[C@@H](C)[C@H](O)[C@@H](O)[C@H]3O)[C@@H]2O)[C@H](O)[C@H](O)[C@H]1O [Compound 12k]")
"no effect"
